- measurement protocol: qHTS assay to identify small molecule antagonists of the retinoic acid receptor (RAR) signaling pathway (AID 1159552; further: nearly all actives have a fitted effect of over 50% in size)
- experimental parameters: C3RL4 RARE luciferase reporter, retinol-stimulated, 6 h; series mostly up to 92.4 µM
Results filed as inconclusive are left out. Activity calls are given as the source filed them. The call rests on the fitted dose curve; in most records, active means well fitted inhibition curve with a large enough effect in the repeat runs; inconclusive means weak or mixed curves, or effect the other way; inactive means no such curve, though single readings can be large or run the other way.
One label from this list, please: active, inactive

# example entries with known answers
1. O=C(N[C@H]1N=C(c2ccccc2F)c2cccc3c2N(CC3)C1=O)c1cc2ccccc2[nH]1 : inactive
2. ClC(Cl)C(Cl)(Cl)Cl : inactive
3. CC(C)[C@@H](Nc1ccc(C(F)(F)F)cc1Cl)C(=O)OC(C#N)c1cccc(Oc2ccccc2)c1 (stereo partly specified) : inactive
4. CCCCCCCc1ccc(O)cc1 : inactive

Prompt: Record lookup: outcome of this test for CC#C[C@]1(O)CC[C@H]2[C@@H]3C[C@H](C)C4=CC(=O)CC[C@]4(C)[C@H]3CC[C@@]21C ?
Completion: active

Prompt: What outcome does the record of this test show for COC(=O)c1ccccc1S(=O)(=O)NC(=O)Nc1nc(C)nc(OC)n1 ?
Completion: inactive

###

- measurement protocol: qHTS assay to identify small molecule HDAC inhibitors - cell viability counter screen (AID 1259365); further: nearly all actives have a fitted effect of over 50% in size
- experimental parameters: HCT-116 viability, CellTiter-Glo ATP luminescence, 2 h; series mostly up to 92.4 µM
Activity calls are given as the source filed them. The call rests on the fitted dose curve; in most records, active means well fitted cell-killing curve with a large enough effect in the repeat runs; inconclusive means weak or mixed curves, or effect the other way; inactive means flat fitted curve, though single readings scatter.
Respond with a class label; see active, inactive

1) CC1CCCC1 : inactive

Prompt: Called result for Cc1cc2c3c(c1)C(c1ccccc1)=N[C@@H](NC(=O)c1ccncc1)C(=O)N3CC2
Completion: inactive

Prompt: # fetch the recorded call for [C-]1=CC=CC1.[Cl][Zr+2][Cl].c1cc[cH-]c1 here
Completion: inactive

Prompt: Please share the test call associated with O=C1C[C@@H]2OCC=C3CN4CC[C@]56c7ccccc7N1[C@H]5[C@H]2[C@H]3C[C@H]46 .
Completion: inactive

Prompt: For N#Cc1sc2c(=O)c3ccccc3c(=O)c=2sc1C#N , what call appears in the results of this test?
Completion: active

Prompt: // return assay outcome for COc1ccc2c3c1O[C@H]1[C@H](O)CC[C@H]4[C@@H](C2)N(C)CC[C@@]341
Completion: inactive

Prompt: GET /call?item= BrCC(Br)(Br)Br returns the recorded outcome of this test.
Completion: inactive

Prompt: Kindly provide the recorded test outcome for the following compound: CCN(CC)Cc1nccn1-c1ccc([N+](=O)[O-])cc1C(=O)c1ccccc1Cl
Completion: inactive

Prompt: Which outcome did this test record for the compound O=[N+]([O-])c1cc(C(F)(F)F)c(Cl)c([N+](=O)[O-])c1Nc1ncc(C(F)(F)F)cc1Cl ?
Completion: active

Prompt: Test call for this compound, please: c1ccc(N=NNc2ccccc2)cc1
Completion: inactive

Prompt: What did the test return for CCCCCCCc1ccc(O)cc1 ?
Completion: inactive

###

- target entity: Estrogen receptor beta (Homo sapiens)
- measurement protocol: qHTS assay to identify small molecule agonists of the estrogen receptor beta (ER-beta) signaling pathway (AID 1259377)
- experimental parameters: ER-beta-UAS-bla HEK293T, beta-lactamase FRET ratio, 16 h; series mostly up to 92.4 µM
Inconclusive results are not listed. The source made the active and inactive calls. Calls come from the whole dose curve; as a rule, active = well fitted activation curve with a large enough effect in the signal ratio in the repeat runs (not every such curve was filed as active); inconclusive = weak or mixed curves, or effect the other way; inactive = flat fitted curve, though single readings scatter; the % refers to the signal ratio.
// one of active, inactive, no free text

Illustrative cases are given below, each with its answer.
1) CC(C)N(C(=O)SC/C(Cl)=C/Cl)C(C)C : inactive
2) Clc1ccc(C2(Cn3cncn3)OCCO2)c(Cl)c1 : inactive
3) Cc1ccn2nc(S(=O)(=O)Nc3c(F)cccc3F)nc2n1 : inactive
4) O=C(O)CCCCCCNC1c2ccccc2CCc2ccccc21 : inactive
5) O=C(N[C@@H]1N=C(c2ccccc2F)c2cccc3c2N(CC3)C1=O)c1cc2ccccc2[nH]1 : inactive
6) [O]=[Cr][O][Cr]=[O] : inactive
7) C#CCO : inactive
8) CC(C)C(Nc1ccc(C(F)(F)F)cc1Cl)C(=O)OC(C#N)c1cccc(Oc2ccccc2)c1 (centres undefined) : inactive
9) CCCCCON=O : inactive
10) NC(=O)C(Cl)Cl : inactive

From here, focus on the item given below.
Prompt: For O=S(=O)(O)F , what call appears in the results of this test?
Completion: inactive
